SUBJECT_OF_TEST: HLA B*5301 (Homo sapiens, UniProt P01889, A329T/A93T/A95T/C349S/D201E/D98Y/E176V/E187L/E204Q/E69T/G107R/I218V/K202T/L105A/L119I/N104I/Q94N/R106L/R155S/R180L/S101N/S121R/S35A/S48A/T118I/V127L/V306I/V36M/Y140S/Y91F)
Assay type: binding
Normalized average relative binding affinity (ARB), HLA B*5301 of 0.04 or higher: Met. Under 0.04: Not met.

RESIDUE_CODES: RXXXXXXXX [3064.0015]
ASSIGNED_CLASS: Not met
//
RESIDUE_CODES: XXSXXXXXX [3064.0056]
ASSIGNED_CLASS: Met
//
RESIDUE_CODES: XLXXXXXXX [3064.0030]
ASSIGNED_CLASS: Not met
//
RESIDUE_CODES: FXXXXXXXX [3064.0005]
ASSIGNED_CLASS: Met
//
RESIDUE_CODES: XCXXXXXXX [3064.0022]
ASSIGNED_CLASS: Not met
//
RESIDUE_CODES: XXLXXXXXX [3064.0050]
ASSIGNED_CLASS: Met
//
RESIDUE_CODES: XEXXXXXXX [3064.0024]
ASSIGNED_CLASS: Not met
